biological target: human orexin type 2 receptor (Homo sapiens, UniProt O43614); construct: expressed in transfected cells; assay: Measurement of orexin type 2 receptor agonist activity (calcium fluorescence, Fluo-4 AM, FDSS); assay type: cell-based; details: test compound 3 μM; CHO cells expressing human OX2 receptor; DMSO = 0%, orexin A (human) = 100%
Sequence (O43614 whole entry): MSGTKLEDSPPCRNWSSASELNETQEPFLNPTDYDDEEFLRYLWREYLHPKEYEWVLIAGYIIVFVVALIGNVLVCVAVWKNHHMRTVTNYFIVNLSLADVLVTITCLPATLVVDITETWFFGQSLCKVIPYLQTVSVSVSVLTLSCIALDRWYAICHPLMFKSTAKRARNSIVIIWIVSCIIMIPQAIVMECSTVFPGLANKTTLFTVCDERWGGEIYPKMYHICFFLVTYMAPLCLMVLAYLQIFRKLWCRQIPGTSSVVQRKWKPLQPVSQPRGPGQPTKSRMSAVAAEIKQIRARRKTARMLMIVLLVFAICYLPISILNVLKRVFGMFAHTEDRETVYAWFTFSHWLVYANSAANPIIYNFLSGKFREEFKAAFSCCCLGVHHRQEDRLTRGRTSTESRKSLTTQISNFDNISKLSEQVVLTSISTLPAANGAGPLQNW
testReadout: OX2R agonist activity (3 μM, %)
Entry rule: numbers only, all in %.

Recorded OX2R agonist activity (3 μM, %), per entry:
molecule: CS(=O)(=O)N[C@@H]1CN(C(=O)[C@@H]2C[C@H]2c2ccccc2-c2c(F)cccc2F)CC[C@@H]1O
OX2R agonist activity (3 μM, %): 64

molecule: CS(=O)(=O)NC1CCN(C(=O)C2CC2c2ccccc2-c2c(F)cccc2F)CCC1(F)F (racemic)
OX2R agonist activity (3 μM, %): 91

molecule: CS(=O)(=O)NC1CCCN(C(=O)C2CC2c2sccc2-c2c(F)cccc2F)CC1 (racemic)
OX2R agonist activity (3 μM, %): 107

molecule: O=C([C@@H]1C[C@@]1(F)c1ccc(F)cc1-c1c(F)cccc1F)N1C[C@@H](F)[C@H]1CNS(=O)(=O)CF
OX2R agonist activity (3 μM, %): 92

molecule: CS(=O)(=O)NC1CN(C(=O)[C@@H]2C[C@@]2(F)c2ccccc2-c2c(F)cccc2F)CC1(F)F (stereo partly shown)
OX2R agonist activity (3 μM, %): 96

Write down OX2R agonist activity (3 μM, %) measured for item CCS(=O)(=O)NC(C)[C@@H]1CCN1C(=O)[C@@H]1C[C@@]1(F)c1ccccc1-c1c(F)cccc1F (stereo partly shown) 98

Entry "C[C@H]1C[C@H](NS(C)(=O)=O)CN1C(=O)[C@@H]1C[C@H]1c1ccccc1-c1c(F)cccc1F" needs its OX2R agonist activity (3 μM, %) filled in; supply it. 109

Entry CC1C(C(=O)N2CCCC[C@H](NS(C)(=O)=O)C2)C1c1ccccc1-c1c(F)cccc1F (mixture of isomers) needs its OX2R agonist activity (3 μM, %) filled in; supply it. 98

Identify measured OX2R agonist activity (3 μM, %) corresponding to "CNS(=O)(=O)NC[C@@H]1[C@H](F)CN1C(=O)[C@@H]1C[C@@]1(F)c1ccc(F)cc1-c1c(F)cccc1F" 102

Tell me measured OX2R agonist activity (3 μM, %) for CS(=O)(=O)NC1CN(C(=O)C2CC2c2c(F)cccc2-c2c(F)cccc2F)CC1(F)F (stereo not shown) please. 104
